B1: KRT13 (parent)
chain: TSSASVTTTSNASGRRTSDVRRP

- Variants of: B1
- assay_method_text: protein stability index of a GFP-peptide fusion (GPS, HEK-293T) (PSI 1-6); higher = more stable;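 further: lentivirally expressed fusions sorted by FACS into six bins by GFP to DsRed ratio, PSI derived from sequencing read proportions per bin multiplied by bin number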
- test_settings: c terminus: native
Class assignment keyed on protein stability index, ranges bottom end: < 2; midrange: ≥ 2 and < 3; top end: ≥ 3

mutation_spec	label_value
P23R	top end
A4Y	midrange
T8K	top end
A4P	bottom end
R21D	top end
R22D	bottom end
T9F	midrange
A12S	midrange
S5G	midrange
S5D	midrange
V20Y	midrange

Attribution: the supplement of paper PMC10567573
